Method summary: TD-6450 phase I clinical study (SAD/MAD): pharmacokinetics
Type: in vivo, human
Condition context: female, human, plasma, oral, 5 mg, Female subjects, SAD arm NCT02022306, Dose 5.00, 96 Hours; read-out: Concentration
Quantity: concentration at 96 h

In plain terms, CNC(=O)N1C[C@@H](C)N(c2ccc(C(=O)Nc3ccc(-c4ccc(-c5c[nH]c([C@@H]6CCCN6C(=O)[C@@H](NC(=O)OC)C(C)C)n5)cc4)c(OC(F)(F)F)c3)cn2)C[C@@H]1C has a documented concentration at 96 h of 1.15 ng/mL

###

Method summary: TD-6450 phase I clinical study (SAD/MAD): pharmacokinetics
Assay type: in vivo, human
Condition context: male, human, plasma, oral, 0.5 mg, Male subjects, SAD arm NCT02022306, Dose 0.50, 30 Minutes; read-out: Concentration
Quantity: concentration at 30 min (ng/mL)
Please give a number only; it is taken to be in ng/mL.

In plain terms, CNC(=O)N1C[C@@H](C)N(c2ccc(C(=O)Nc3ccc(-c4ccc(-c5c[nH]c([C@@H]6CCCN6C(=O)[C@@H](NC(=O)OC)C(C)C)n5)cc4)c(OC(F)(F)F)c3)cn2)C[C@@H]1C has a documented concentration at 30 min of 0

###

Method summary: TD-6450 phase I clinical study (SAD/MAD): pharmacokinetics
Type: in vivo, human
Condition context: both sexes, human, plasma, oral, 15 mg, SAD 15 mg; read-out: Cmax Mean ± SD
Quantity: Cmax (nM)
Please give a number only; it is taken to be in nM.

In plain terms, CNC(=O)N1C[C@@H](C)N(c2ccc(C(=O)Nc3ccc(-c4ccc(-c5c[nH]c([C@@H]6CCCN6C(=O)[C@@H](NC(=O)OC)C(C)C)n5)cc4)c(OC(F)(F)F)c3)cn2)C[C@@H]1C has a documented Cmax of 21

###

Method summary: TD-6450 phase I clinical study (SAD/MAD): pharmacokinetics
Format: in vivo, human
Condition context: female, human, plasma, oral, 60 mg, Female subjects, SAD arm NCT02022306, Dose 60.00, 12 Hours; read-out: Concentration
Quantity: concentration at 12 h (ng/mL)
Please give a number only; it is taken to be in ng/mL.

In plain terms, CNC(=O)N1C[C@@H](C)N(c2ccc(C(=O)Nc3ccc(-c4ccc(-c5c[nH]c([C@@H]6CCCN6C(=O)[C@@H](NC(=O)OC)C(C)C)n5)cc4)c(OC(F)(F)F)c3)cn2)C[C@@H]1C [TD-6450] has a documented concentration at 12 h of 60.5

###

Method summary: TD-6450 phase I clinical study (SAD/MAD): pharmacokinetics
Format: in vivo, human
Condition context: female, human, plasma, oral, 60 mg, Female subjects, SAD arm NCT02022306, Dose 60.00, 72 Hours; read-out: Concentration
Quantity: concentration at 72 h (ng/mL)
Please give a number only; it is taken to be in ng/mL.

In plain terms, CNC(=O)N1C[C@@H](C)N(c2ccc(C(=O)Nc3ccc(-c4ccc(-c5c[nH]c([C@@H]6CCCN6C(=O)[C@@H](NC(=O)OC)C(C)C)n5)cc4)c(OC(F)(F)F)c3)cn2)C[C@@H]1C has a documented concentration at 72 h of 22.4

###

Method summary: TD-6450 phase I clinical study (SAD/MAD): pharmacokinetics
Type: in vivo, human
Condition context: male, human, in vivo, TD-6450 concentration
Quantity: concentration at 24 h (ng/mL)
Please give a number only; it is taken to be in ng/mL.

In plain terms, CNC(=O)N1C[C@@H](C)N(c2ccc(C(=O)Nc3ccc(-c4ccc(-c5c[nH]c([C@@H]6CCCN6C(=O)[C@@H](NC(=O)OC)C(C)C)n5)cc4)c(OC(F)(F)F)c3)cn2)C[C@@H]1C has a documented concentration at 24 h of 85.6

###

Method summary: TD-6450 phase I clinical study (SAD/MAD): pharmacokinetics
Type: in vivo, human
Condition context: female, human, plasma, oral, 60 mg, Female subjects, SAD arm NCT02022306, Dose 60.00, 3 Hours; read-out: Concentration
Quantity: concentration at 3 h (ng/mL)
Please give a number only; it is taken to be in ng/mL.

In plain terms, CNC(=O)N1C[C@@H](C)N(c2ccc(C(=O)Nc3ccc(-c4ccc(-c5c[nH]c([C@@H]6CCCN6C(=O)[C@@H](NC(=O)OC)C(C)C)n5)cc4)c(OC(F)(F)F)c3)cn2)C[C@@H]1C has a documented concentration at 3 h of 70.5

###

Method summary: TD-6450 phase I clinical study (SAD/MAD): pharmacokinetics
Assay type: in vivo, human
Condition context: female, human, plasma, oral, 0.5 mg, Female subjects, SAD arm NCT02022306, Dose 0.50, 144 Hours; read-out: Concentration
Quantity: concentration at 144 h (ng/mL)
Please give a number only; it is taken to be in ng/mL.

In plain terms, CNC(=O)N1C[C@@H](C)N(c2ccc(C(=O)Nc3ccc(-c4ccc(-c5c[nH]c([C@@H]6CCCN6C(=O)[C@@H](NC(=O)OC)C(C)C)n5)cc4)c(OC(F)(F)F)c3)cn2)C[C@@H]1C has a documented concentration at 144 h of 0

###

Method summary: TD-6450 phase I clinical study (SAD/MAD): pharmacokinetics
Type: in vivo, human
Condition context: male, human, plasma, oral, 30 mg, Male subjects, SAD arm NCT02022306, Dose 30.00, 120 Hours; read-out: Concentration
Protocol: Primary and secondary outcomes were pre-defined as follows: Safety and tolerability as a primary outcome, pharmacokinetics as a secondary outcome. Safety and tolerability were evaluated using standard measures, including adverse event (AE) monitoring, clinical laboratory tests (hematology, serum chemistry, coagulation, and urinalysis), vital signs, physical examinations, and 12-lead electrocardiograms (ECGs). […] This study was conducted in two parts, Part A (SAD) and Part B (MAD). […]
Quantity: concentration at 120 h (ng/mL)
Please give a number only; it is taken to be in ng/mL.

In plain terms, CNC(=O)N1C[C@@H](C)N(c2ccc(C(=O)Nc3ccc(-c4ccc(-c5c[nH]c([C@@H]6CCCN6C(=O)[C@@H](NC(=O)OC)C(C)C)n5)cc4)c(OC(F)(F)F)c3)cn2)C[C@@H]1C [TD-6450] has a documented concentration at 120 h of 4.26

###

Method summary: TD-6450 phase I clinical study (SAD/MAD): pharmacokinetics
Type: in vivo, human
Condition context: female, human, plasma, oral, 0.5 mg, Female subjects, SAD arm NCT02022306, Dose 0.50, 1 Hour; read-out: Concentration
Quantity: concentration at 1 h (ng/mL)
Please give a number only; it is taken to be in ng/mL.

In plain terms, CNC(=O)N1C[C@@H](C)N(c2ccc(C(=O)Nc3ccc(-c4ccc(-c5c[nH]c([C@@H]6CCCN6C(=O)[C@@H](NC(=O)OC)C(C)C)n5)cc4)c(OC(F)(F)F)c3)cn2)C[C@@H]1C [TD-6450] has a documented concentration at 1 h of 0

###

Method summary: TD-6450 phase I clinical study (SAD/MAD): pharmacokinetics
Type: in vivo, human
Condition context: human, in vivo, 120 mg; Male subjects, SAD arm NCT02022306, Dose 120.00, 168 Hours; read-out: Concentration (ng/ml)
Quantity: concentration at 168 h (ng/mL)
Please give a number only; it is taken to be in ng/mL.

In plain terms, CNC(=O)N1C[C@@H](C)N(c2ccc(C(=O)Nc3ccc(-c4ccc(-c5c[nH]c([C@@H]6CCCN6C(=O)[C@@H](NC(=O)OC)C(C)C)n5)cc4)c(OC(F)(F)F)c3)cn2)C[C@@H]1C [TD-6450] has a documented concentration at 168 h of 10.2

###

Method summary: TD-6450 phase I clinical study (SAD/MAD): pharmacokinetics
Format: in vivo, human
Condition context: female, human, plasma, oral, 0.5 mg, Female subjects, SAD arm NCT02022306, Dose 0.50, 48 Hours; read-out: Concentration
Quantity: concentration at 48 h (ng/mL)
Please give a number only; it is taken to be in ng/mL.

In plain terms, CNC(=O)N1C[C@@H](C)N(c2ccc(C(=O)Nc3ccc(-c4ccc(-c5c[nH]c([C@@H]6CCCN6C(=O)[C@@H](NC(=O)OC)C(C)C)n5)cc4)c(OC(F)(F)F)c3)cn2)C[C@@H]1C [TD-6450] has a documented concentration at 48 h of 0.26

###

Method summary: TD-6450 phase I clinical study (SAD/MAD): pharmacokinetics
Format: in vivo, human
Condition context: female, human, plasma, oral, 5 mg, Female subjects, SAD arm NCT02022306, Dose 5.00, 2 Hours; read-out: Concentration
Protocol: Primary and secondary outcomes were pre-defined as follows: Safety and tolerability as a primary outcome, pharmacokinetics as a secondary outcome. Safety and tolerability were evaluated using standard measures, including adverse event (AE) monitoring, clinical laboratory tests (hematology, serum chemistry, coagulation, and urinalysis), vital signs, physical examinations, and 12-lead electrocardiograms (ECGs). […] This study was conducted in two parts, Part A (SAD) and Part B (MAD). […]
Quantity: concentration at 2 h (ng/mL)
Please give a number only; it is taken to be in ng/mL.

In plain terms, CNC(=O)N1C[C@@H](C)N(c2ccc(C(=O)Nc3ccc(-c4ccc(-c5c[nH]c([C@@H]6CCCN6C(=O)[C@@H](NC(=O)OC)C(C)C)n5)cc4)c(OC(F)(F)F)c3)cn2)C[C@@H]1C has a documented concentration at 2 h of 2.32
